Reference source: patent US20220267443A1

Target: T1, recombinant human CTLA-4-Fc (R&D Systems, #7268-CT) (human, UniProt P16410 36-161)
T1 construct: Bought protein; also called rhCTLA-4-Fc; CTLA-4 antigen; not shown: Fc part of the bought fusion protein
T1 sequence: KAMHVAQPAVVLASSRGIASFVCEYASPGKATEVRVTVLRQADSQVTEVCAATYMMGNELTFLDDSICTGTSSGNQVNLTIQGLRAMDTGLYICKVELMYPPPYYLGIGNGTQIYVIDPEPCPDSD
Experiment: surface plasmon resonance, antibody captured on CM5 chip, rhCTLA-4-Fc in solution
Method: To detect nonspecific interactions of the CTLA-4 antigen, antibody capture was only performed in flow cell 2, whereas in flow cell 1 only the capturing antibody was immobilized. […] Binding curves were evaluated using BIAcore® T200 evaluation software version 2.0.1 applying a Langmuir 1:1 model with global fit of Rmax. From these values the affinities (KD) of AGEN1884 and the reference anti-CTLA-4 antibody for various antigens were calculated and shown in FIG. 1A. […]
parameter: binding result

• AGEN1888 (antibody, V domains shown) VH: EVQLLESGGGLVQPGGSLRLSCAASGFTFSSYAMSWVRQAPGKGLVWVSSISSSSSYIYYADSVKGRFTISRDNAKNSLYLQMNSLRAEDTAVYYCARVGLMGPFDIWGQGTMVTVSS VL: EIVLTQSPATLSFSPGERATLSCRASQSVSSYLAWYQQKPGQAPRLLIYGASSRATGIPDRFSGSGSGTDFTFTISRLEPEDFAVYYCQQYGSSPFTFGPGTKVDIK = binds
• AGEN1893 (antibody, V domains shown) VH: EVQLLESGGGLVKPGGSLRLSCAASGFTFSSYSMNWVRQAPGKGLEWVSSISSSSSYIYYADSVKGRFTISRDNAKNSLYLQMNSLRAEDTAVYYCARVGLMGPFDIWGQGTMVTVSS VL: EIVLTQSPATLSLSPGERATLSCRASQSVGTYLAWYQHKVGQAPRLLIYGASRRATGIPDRFSGSGSGTDFTLTISRLEPEDFAVYYCQQYGSSPWTFGQGTKVEIK = binds
